Taken from patent US10076519B2.

System: rabbit skeletal myofibrils (fast skeletal myofibrils)
RUN_DESCRIPTION: Activation of fast skeletal myofibrils (PUMA assay, PK/LDH-coupled ATPase at pCa25)
Format: biochemical
EXPERIMENTAL_CONDITIONS: median AC1.4 class, procedure of Example 39
ENDPOINT: Mean AC1.4

// worked examples, Mean AC1.4 included
# ITEM_SMILES, Mean AC1.4
data = [
    ("NCc1cnc(-c2ccc(NCC3(c4ncccc4F)CCC3)nn2)s1", "B (B=1-10 uM)"),
    ("Cn1nc(C(N)=O)cc1-c1ccc(NCC2(c3ncccc3F)CCC2)nn1", "B (B=1-10 uM)"),
    ("O=C(c1cnc(-c2ccc(NCC3(c4ncccc4F)CCC3)nn2)s1)N1CCS(=O)(=O)CC1", "B (B=1-10 uM)"),
    ("O=C(O)c1ccc(-c2ccc(NCC3(c4ncccc4F)CCC3)nn2)s1", "B (B=1-10 uM)"),
]

Quick one: give me Mean AC1.4 for each item below, same order please.
1. O=CN1CC(F)(F)C[C@H]1C(=O)NCc1cnc(-c2ccc(NCC3(c4ncccc4F)CCC3)nn2)s1
2. Fc1cccnc1[C@]1(CNc2ccc(-c3cccc(-c4nn[nH]n4)c3)nn2)C[C@@H](F)C1
3. CCOC(=O)c1c(-c2ccc(NCC3(c4ncccc4F)CCC3)nn2)n[nH]c1O
4. CCc1ccc(NCC2(c3ncccc3F)CCC2)nn1

## Result
["A (A=<1 uM)", "A (A=<1 uM)", "D (D=>20 uM)", "D (D=>20 uM)"]

Fill in Mean AC1.4 for each of the 2 compounds listed.
1. Nc1n[nH]c2ccc(-c3ccc(NC[C@]4(c5ncccc5F)C[C@H](F)C4)nn3)cc12
2. CC(C)(CNc1ccc(-c2cccc(-c3nn[nH]n3)c2)nn1)c1ncccc1F

## Result
A (A=<1 uM)
B (B=1-10 uM)

====

System: rabbit skeletal myofibrils (fast skeletal myofibrils)
RUN_DESCRIPTION: Activation of fast skeletal myofibrils (PUMA assay, PK/LDH-coupled ATPase at pCa25)
Assay type: biochemical
EXPERIMENTAL_CONDITIONS: median AC1.4 reported as class; procedure of Example 39
ENDPOINT: Mean AC1.4

Consider the reported Mean AC1.4 for these compounds:
# ITEM_SMILES, Mean AC1.4
rows = [
    ("O=C(O)c1cc(-c2ccc(NC[C@]3(c4ncccc4F)C[C@H](F)C3)nn2)ccc1F", "B (B=1-10 uM)"),
    ("NC(=O)c1cc(-c2ccc(NCC3(c4ncccc4F)CCC3)nn2)c(F)cc1O", "A (A=<1 uM)"),
    ("Cc1cc(NCC2(c3ncccc3F)CCC2)nnc1-c1ncc(CC(=O)O)s1", "B (B=1-10 uM)"),
    ("NC(=O)Cc1csc(-c2ccc(NCC3(c4ncccc4F)CCC3)nn2)n1", "D (D=>20 uM)"),
    ("CS(=O)(=O)N1CCN(Cc2cnc(-c3ccc(NCC4(c5ncccc5F)CCC4)nn3)s2)CC1", "D (D=>20 uM)"),
]

Please report Mean AC1.4 for every entry that follows.
1. OC[C@@H]1CNCCN1Cc1cnc(-c2ccc(NCC3(c4ncccc4F)CCC3)nn2)s1
2. CC(=O)N1CC(NC(=O)c2ccc(F)c(-c3ccc(NC[C@]4(c5ncccc5F)C[C@H](F)C4)nn3)c2)C1
3. CC(C)(Nc1ccc(-c2cn3c(C(N)=O)csc3n2)nn1)c1ncccc1Cl
4. N#Cc1cc(N)cc(-c2ccc(NC[C@]3(c4ncccc4F)C[C@H](F)C3)nn2)c1

## Result
B (B=1-10 uM)
A (A=<1 uM)
B (B=1-10 uM)
A (A=<1 uM)

====

Test system: rabbit skeletal myofibrils (fast skeletal myofibrils)
RUN_DESCRIPTION: Activation of fast skeletal myofibrils (PUMA assay, PK/LDH-coupled ATPase at pCa25)
Format: biochemical
EXPERIMENTAL_CONDITIONS: median AC1.4 class, procedure of Example 39
ENDPOINT: Mean AC1.4

Worked cases, Mean AC1.4 given:
# MOLECULE, Mean AC1.4
measured = [
    ("O=C(c1cnc(-c2ccc(NCC3(c4ncccc4F)CCC3)nn2)s1)N1CCC(O)C1 (stereo not drawn)", "C (C=10-20 uM)"),
    ("Cc1cc(-c2ccc(NC3(c4ccc(F)cc4)CCC3)nn2)ccn1", "B (B=1-10 uM)"),
    ("NS(=O)(=O)Nc1ccc(-c2ccc(NC3(c4ncccc4F)CCC3)nn2)c(F)c1", "B (B=1-10 uM)"),
    ("COc1cccc(C2(Nc3ccc(-c4cccc(C(N)=O)c4)nn3)CCC2)n1", "B (B=1-10 uM)"),
    ("O=C(N[C@@H]1CCNC1)c1cnc(-c2ccc(NCC3(c4ncccc4F)CCC3)nn2)s1", "A (A=<1 uM)"),
]

// each molecule listed below needs its Mean AC1.4
1. CC(C)(CNc1ccc(-c2cccc(C#N)c2)nn1)c1ncccc1Cl
2. CN(CC1(c2ccccn2)CCC1)c1ccc(-c2cccc(C(N)=O)c2)nn1
3. NC(=S)c1cnc(-c2ccc(NCC3(c4ncccc4F)CCC3)nn2)s1
4. NC(=O)N[C@H]1C[C@@H](c2ccc(NCC3(c4ncccc4F)CCC3)nn2)C1
5. O=C(NCC(F)(F)CO)c1cnc(-c2ccc(NCC3(c4ncccc4F)CCC3)nn2)s1
6. NC(=O)c1cccc(-c2ccc(NC[C@]3(c4ncccc4F)C[C@H](F)C3)nn2)c1
7. NC(=O)c1nc(-c2ccc(NCC3(c4ncccc4F)CCC3)nn2)c[nH]1

## Result
1. B (B=1-10 uM)
2. D (D=>20 uM)
3. A (A=<1 uM)
4. B (B=1-10 uM)
5. A (A=<1 uM)
6. A (A=<1 uM)
7. C (C=10-20 uM)

====

Tested on: rabbit skeletal myofibrils (fast skeletal myofibrils)
RUN_DESCRIPTION: Activation of fast skeletal myofibrils (PUMA assay, PK/LDH-coupled ATPase at pCa25)
Format: biochemical
EXPERIMENTAL_CONDITIONS: median AC1.4 class, procedure of Example 39
ENDPOINT: Mean AC1.4

Solved cases (5 shown):
# ITEM_SMILES, Mean AC1.4
data = [
    ("NC(=O)Nc1ccc(-c2ccc(NCC3(c4ncccc4F)CCC3)nn2)cc1", "A (A=<1 uM)"),
    ("NC(=O)c1cncc(-c2ccc(NCC3(c4ncccc4F)CCC3)nn2)n1", "C (C=10-20 uM)"),
    ("C=Cc1ccc(NCC2(c3ncccc3F)CCC2)nn1", "D (D=>20 uM)"),
    ("NC(=O)c1cc(-c2ccc(NCC3(c4ncccc4F)CCC3)nn2)ccc1O", "A (A=<1 uM)"),
    ("NC(=O)c1ccnc(-c2ccc(NCC3(c4ncccc4F)CCC3)nn2)n1", "A (A=<1 uM)"),
]

Please give Mean AC1.4, item by item, for the list that follows.
1. NC(=O)c1ccnc(C2(Nc3ccc(-c4cc(C(N)=O)ccc4F)nn3)CCC2)c1
2. NC(=O)c1ncccc1-c1ccc(NCC2(c3ncccc3F)CCC2)nn1
3. O=C(NCc1cnc(-c2ccc(NCC3(c4ncccc4F)CCC3)nn2)s1)[C@@H]1CCCN1

## Result
1: D (D=>20 uM); 2: C (C=10-20 uM); 3: A (A=<1 uM)

Give Mean AC1.4 for all molecules that follow.
1. Nc1ncccc1-c1ccc(NCC2(c3ncccc3F)CCC2)nn1
2. NC(=O)c1cccc(-c2ccc(NC3(c4cccc(OC(F)F)n4)CCC3)nn2)c1
3. O=c1[nH]nc(-c2ccc(NCC3(c4ncccc4F)CCC3)nn2)[nH]1
4. O=c1[nH]nc(-c2cccc(-c3ccc(NCC4(c5ncccc5F)CCC4)nn3)c2)[nH]1
5. Fc1cccnc1C1(Nc2ccc(C3=CCCCC3)nn2)CCC1
6. NC(=O)c1cccc(-c2ccc(NC3(c4ncccc4F)CCC3)nn2)c1

## Result
1. B (B=1-10 uM)
2. A (A=<1 uM)
3. C (C=10-20 uM)
4. B (B=1-10 uM)
5. C (C=10-20 uM)
6. B (B=1-10 uM)

Record Mean AC1.4 per entry; entries follow.
1. O=C(c1cnc(-c2ccc(NCC3(c4ncccc4F)CCC3)nn2)s1)N1CCC(O)CC1
2. Fc1cccnc1C1(CNc2ccc(-c3cccc(-c4nn[nH]n4)c3)nn2)CCC1
3. CC(C)(Nc1ccc(-c2cccc(NS(C)(=O)=O)c2)nn1)c1cccc(OC(F)F)n1

## Result
C (C=10-20 uM)
A (A=<1 uM)
A (A=<1 uM)

Here are 2 molecules. What values of Mean AC1.4 were reported for them?
1. N#Cc1cccc(C2(Nc3ccc(-c4cc(C(N)=O)ccc4F)nn3)CCC2)n1
2. CC(C)(CO)Nc1ccc(-c2cccc(C(N)=O)c2)nn1

## Result
B (B=1-10 uM)
D (D=>20 uM)

====

Test system: rabbit skeletal myofibrils (fast skeletal myofibrils)
RUN_DESCRIPTION: Activation of fast skeletal myofibrils (PUMA assay, PK/LDH-coupled ATPase at pCa25)
Format: biochemical
EXPERIMENTAL_CONDITIONS: AC1.4 determined according to the procedure of Example 39; reported as class symbols
ENDPOINT: Mean AC1.4

# COMPOUND, Mean AC1.4
measured = [
    ("CC(C)(CNc1ccc(-c2ccc3onc(N)c3c2)nn1)c1ccc(F)cc1", "B (B=1-10 uM)"),
    ("N#Cc1ccnc(C2(CNc3ccc(-c4cccc(C(N)=O)c4)nn3)CCC2)c1", "B (B=1-10 uM)"),
    ("CC(C)(CNc1ccc(-c2ccc3[nH]nc(NCCN)c3c2)nn1)c1ccc(F)cc1", "A (A=<1 uM)"),
    ("CC(C)(CNc1ccc(-c2ccc3[nH]nc(C(=N)N)c3c2)nn1)c1ccc(F)cc1", "B (B=1-10 uM)"),
    ("CN(C)C(=O)n1nc(N)c2cc(-c3ccc(NCC(C)(C)c4ccc(F)cc4)nn3)ccc21", "B (B=1-10 uM)"),
    ("CC(C)(CNc1ccc(C(=O)N2CCNC(C(N)=O)C2)nn1)c1ccc(F)cc1 (stereo not shown)", "D (D=>20 uM)"),
    ("NC(=O)c1cncc(-c2ccc(NCC3(c4ccc(F)cc4)CC3)nn2)c1", "B (B=1-10 uM)"),
    ("CC(C)(CNc1ccc(-c2ccc3[nH]nc(N)c3c2)nn1)c1ncc(F)cc1F", "A (A=<1 uM)"),
]

Quick one: give me Mean AC1.4 for each item below, same order please.
1. NC(=O)c1cccc(-c2ccc(NCCc3ccncc3)nn2)c1
2. Nc1ccc(-c2ccc(NCC3(c4ncccc4F)CCC3)nn2)cc1

## Result
["D (D=>20 uM)", "A (A=<1 uM)"]
